assay system: T1, hCMV glycoprotein B (gB; HEK293T transfectant) (hCMV, UniProt P06473 32-906)
T1 construct: whole, on cells; in the functional rows it stands for gB on virions or transduced cells of the strain or isolate named in the readout
T1 sequence (P06473 32-906 limits assumed): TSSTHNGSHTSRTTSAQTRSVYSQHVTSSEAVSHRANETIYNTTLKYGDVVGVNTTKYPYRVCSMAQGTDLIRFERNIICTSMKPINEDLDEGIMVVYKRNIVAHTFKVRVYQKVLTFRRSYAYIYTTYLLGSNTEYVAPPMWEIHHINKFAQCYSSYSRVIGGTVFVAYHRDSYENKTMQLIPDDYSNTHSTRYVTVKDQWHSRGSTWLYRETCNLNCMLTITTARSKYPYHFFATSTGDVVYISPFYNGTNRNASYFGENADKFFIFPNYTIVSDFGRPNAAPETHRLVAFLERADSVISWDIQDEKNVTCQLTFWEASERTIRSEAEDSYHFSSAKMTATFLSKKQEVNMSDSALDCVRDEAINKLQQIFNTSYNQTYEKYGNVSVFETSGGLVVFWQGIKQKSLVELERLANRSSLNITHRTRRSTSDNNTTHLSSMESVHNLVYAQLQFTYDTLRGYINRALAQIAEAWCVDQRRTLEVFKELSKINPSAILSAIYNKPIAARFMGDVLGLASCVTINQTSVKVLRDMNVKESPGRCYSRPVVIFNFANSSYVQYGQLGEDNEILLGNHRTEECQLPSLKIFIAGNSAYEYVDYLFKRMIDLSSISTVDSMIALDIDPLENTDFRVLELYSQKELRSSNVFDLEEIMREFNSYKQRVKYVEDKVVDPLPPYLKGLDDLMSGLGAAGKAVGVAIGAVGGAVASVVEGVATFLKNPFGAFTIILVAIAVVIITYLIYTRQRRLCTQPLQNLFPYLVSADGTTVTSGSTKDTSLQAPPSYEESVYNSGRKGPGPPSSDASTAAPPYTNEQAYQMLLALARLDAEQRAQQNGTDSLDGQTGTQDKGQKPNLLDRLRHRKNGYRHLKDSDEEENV
assay procedure: cell competition; competitor 4H9-biotin

[
  {
    "binder": "7H3 (antibody, V domains shown, fully human IgG1 with unaltered Fc; also called 7H3-biotin; LJP538) VH: QVQLVQSGAEVKNPGASVKVSCKASGYTFTDYYIHWVRQAPGQGLEWMGWFNPNSGGTNFVQNFQGRVTMTRDTSISTAYMELSRLRSDDTAMYYCAKDSAKTASAYYGLNFFYYGMDVWGQGTTVTVSS VL: QSVLSQPPSASGTPGQRVTISCSGSSSNIGKNYVYWYQQVPGTAPKLLMFKNNQRPSGVPDRFSGSKSGTSASLAISGLRSEDEADYYCSAWDGSLSRPLFGGGTKVTVL",
    "Inhibition of binding (%)": 0
  },
  {
    "binder": "2B11 (antibody, V domains shown, human IgG; also called 2B11-biotin) VH: AVRLVESGGGLAQPGRSLRLSCQVSGFTFGSYEMNWVRQAPGKGLEWIAYIDFTGSTIYYADSVKGRFTISRNTARNSLYLQMNSLRVEDTAVYYCVRDAGRWGTSWYYFDYWGQGTRVTVSP VL: QSVLTQPPSVSGAPGQRVTISCTGISSNIGAGYDIHWYQQIPGKAPKLLVYGNNNRPSGVPDRFSGSKSGTSVSLAITGLQVEDEADYYCQSYDNSLNGWVFGGGTRLTVL",
    "Inhibition of binding (%)": 100
  },
  {
    "binder": "5F1 (antibody, V domains shown, human IgG; also called 5F1-biotin) VH: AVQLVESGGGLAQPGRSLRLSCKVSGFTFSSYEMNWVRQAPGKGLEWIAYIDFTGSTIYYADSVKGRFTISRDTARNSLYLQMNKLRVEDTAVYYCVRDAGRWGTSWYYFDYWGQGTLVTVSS VL: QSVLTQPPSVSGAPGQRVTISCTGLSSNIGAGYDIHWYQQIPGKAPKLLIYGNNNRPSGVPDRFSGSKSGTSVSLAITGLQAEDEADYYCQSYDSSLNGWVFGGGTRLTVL",
    "Inhibition of binding (%)": 100
  },
  {
    "binder": "6B4 (antibody, V domains shown, human IgG; also called 6B4-biotin) VH: QVQLVESGGGVVQPGRSLRLSCAASGFRFNEFNMHWVRQAPGKGLEWVAVISIDGRHKYNADSVEGRFTISRDNSRNTLYLQMNSLRVEDTALYYCVTDGKAVDGFSGILEFWGQGTPVTVST VL: EIVLTQSPATLSLSPGERATLSCWASQSVGGYLAWYQQKPGQAPRLLIYDASIRATGIPARFSGSGSGTHFTLTINSLEPEDFAVYYCQQRNNWPPLTFGGGTKVEIK",
    "Inhibition of binding (%)": 0
  },
  {
    "binder": "10C6 (antibody, V domains shown, human IgG; also called 10C6-biotin; 1006) VH: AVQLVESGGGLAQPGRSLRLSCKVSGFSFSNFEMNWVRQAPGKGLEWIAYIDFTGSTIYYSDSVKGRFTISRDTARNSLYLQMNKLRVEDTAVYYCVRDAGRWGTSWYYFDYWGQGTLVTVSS VL: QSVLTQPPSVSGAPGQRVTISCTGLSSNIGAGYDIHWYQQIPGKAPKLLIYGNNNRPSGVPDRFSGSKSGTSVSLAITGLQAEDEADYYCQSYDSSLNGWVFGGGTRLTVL",
    "Inhibition of binding (%)": 100
  },
  {
    "binder": "4H9 (antibody, V domains shown, human IgG; also called 4H9-biotin; 4H9.6) VH: AVQLVESGGGLVRPGGSLRLSCAASGFTFSSHEMHWVRQAPGKGLEWLSYIDFTGSIIYYADSVRGRFTISRDNTKKSLFLQMNSLRDEDTALYYCARDGGRWGTSWYYFDYWGQGVLVTVSS VL: QSVLTQPPSVSGAPGQRVTITCTGSSSNFGAGYDGHWYQQLPGTAPKLLIYGSNRPSGVPDRFSGSKSGTSVSLAITGLQADDEADYYCQSYDSSLSAWVFGGGTKLTVL",
    "Inhibition of binding (%)": 100
  }
]
